The measurements presented in this section are drawn from ChEMBL document CHEMBL4219198.

test: Selectivity ratio of IC50 for human cathepsin K to IC50 for Plasmodium falciparum falcipain-2
Measured Quantity: Ratio IC50
Give bare numbers.

See these solved cases before continuing.
N#CC1(NC(=O)[C@H](Cc2cccnc2)NC(=O)c2cccc(-c3cn[nH]c3)c2)CC1
2350
CN1CCN(Cc2ccc(C(=O)N[C@@H](Cc3cccnc3)C(=O)NC3(C#N)CC3)s2)CC1
34
Cn1nc(C(F)(F)F)cc1-c1ccc(C(=O)N[C@@H](Cc2cccnc2)C(=O)NC2(C#N)CC2)s1
212
N#CC1(NC(=O)[C@H](Cc2cccnc2)NC(=O)c2cccc(-n3cnnn3)c2)CC1
1360

Each compound below has a recorded value; state its Ratio IC50.
1. CN1CCCC(c2cccc(C(=O)N[C@@H](Cc3cccnc3)C(=O)NC3(C#N)CC3)c2)C1 (some centres not stated)
2. Cn1nc(C(F)(F)F)cc1-c1ccc(C(=O)N[C@@H](Cc2cccnc2)C(=O)NC2(C#N)CCS(=O)(=O)CC2)s1
3. CS(=O)(=O)c1cccc(-c2cccc(C(=O)N[C@@H](Cc3cccnc3)C(=O)NC3(C#N)CC3)c2)c1

Output:
1: 170; 2: 107; 3: 180

====

assay: Selectivity ratio of IC50 for human cathepsin K to IC50 for Plasmodium falciparum falcipain-2
Answer each item with its documented Ratio IC50.
One number for each entry.

Sample answers from the record:
CN1CCN(Cc2ccc(C(=O)N[C@@H](Cc3cccnc3)C(=O)NC3(C#N)CCS(=O)(=O)CC3)s2)CC1
34
N#CC1(NC(=O)[C@H](Cc2cccnc2)NC(=O)c2cccc(-c3ncc[nH]3)c2)CC1
718

API: the following record is the query input.
Input: # query: Ratio IC50 of entry N#CC1(NC(=O)[C@H](Cc2cccnc2)NC(=O)c2ccc(-c3ccccc3)cc2)CC1
Output: 9

====

experiment: Selectivity ratio of IC50 for human cathepsin L to IC50 for Plasmodium falciparum falcipain-2
Give measured Ratio IC50 for each item. Keep answers brief.
Numbers only.

Known Ratio IC50 results, listed for orientation:
N#CC1(NC(=O)[C@H](Cc2cccnc2)NC(=O)c2cccc(-n3cnnn3)c2)CC1
574
N#CC1(NC(=O)[C@H](Cc2cccnc2)NC(=O)c2cccc(-c3cn[nH]c3)c2)CC1
349

# next molecule below
Input: // Ratio IC50 lookup, key: Cn1nc(C(F)(F)F)cc1-c1ccc(C(=O)N[C@@H](Cc2cccnc2)C(=O)NC2(C#N)CC2)s1
Output: 1240

====

Can you tell me CC50 for the items I'm about to list?
test: Cytotoxicity against HUVEC assessed as reduction in cell viability; format: cell-based; conditions: human, HUVEC cells

For every listed record, write down its CC50.
1. N#CC1(NC(=O)[C@H](Cc2cccnc2)NC(=O)c2cccc(-c3cn[nH]c3)c2)CC1
2. N#CC1(NC(=O)[C@H](Cc2cccnc2)NC(=O)c2cccc(-n3cnnn3)c2)CC1
3. N#CC1(NC(=O)[C@H](Cc2cccnc2)NC(=O)c2cccc(-c3ncc[nH]3)c2)CC1
4. CN1CCN(Cc2ccc(-c3cncc(C(=O)N[C@@H](Cc4cccnc4)C(=O)NC4(C#N)CC4)c3)cc2)CC1

Output:
1. > 16 µM
2. > 16 µM
3. > 16 µM
4. > 16 µM

====

Observed IC50 values for Cathepsin B (Homo sapiens) are listed in what follows.
Answers are plain numbers, in µM.

N#CC1(NC(=O)[C@H](Cc2ccc(O[C@@H]3CCNC3)cc2)NC(=O)c2ccc(-c3ccccc3)cc2)CC1
2.24
CC(C)C[C@H](NC(=O)c1ccc(CN2CCN(C)CC2)cc1)C(=O)NC1(C#N)CCS(=O)(=O)CC1
2.32
CC(C)CN(NC(=O)c1ccc(CN2CCN(C)CC2)cc1)c1nc(C#N)ncc1Br
0.987

For every record below, what is its IC50?
1. N#CC1(NC(=O)[C@H](Cc2cccnc2)NC(=O)c2ccc(-c3ccccc3)cc2)CC1
2. CC(C)C[C@H](NC(=O)c1ccc(-c2ccccc2)cc1)C(=O)NC1(C#N)CCS(=O)(=O)CC1
3. N#CC1(NC(=O)[C@H](Cc2cscn2)NC(=O)c2ccc(-c3ccccc3)cc2)CC1
4. CN(C)c1ccc(C[C@H](NC(=O)c2ccc(-c3ccccc3)cc2)C(=O)NC2(C#N)CC2)cc1

Output:
1. 2.75
2. 2.5
3. 2.37
4. 0.715

====

I'd be grateful if you could share measured Ratio IC50 for these entries.
test: Selectivity ratio of IC50 for human cathepsin L to IC50 for Plasmodium falciparum falcipain-2
Numbers only.

Examples from the recorded data:
CN1CCN(Cc2ccc(C(=O)N[C@@H](Cc3cccnc3)C(=O)NC3(C#N)CC3)s2)CC1
14
CN1CCCC(c2cccc(C(=O)N[C@@H](Cc3cccnc3)C(=O)NC3(C#N)CC3)c2)C1 (some centres undefined)
61

Record Ratio IC50 per entry; entries follow.
1. CN1CCN(Cc2ccc(C(=O)N[C@@H](Cc3cccnc3)C(=O)NC3(C#N)CCS(=O)(=O)CC3)s2)CC1
2. N#CC1(NC(=O)[C@H](Cc2cccnc2)NC(=O)c2cccc(-c3ncc[nH]3)c2)CC1

Output:
1. 6
2. 128

====

For each entry below, report its pIC50 value.
molecular target: UniProt Q9N6S8
Sequence (Q9N6S8 whole entry): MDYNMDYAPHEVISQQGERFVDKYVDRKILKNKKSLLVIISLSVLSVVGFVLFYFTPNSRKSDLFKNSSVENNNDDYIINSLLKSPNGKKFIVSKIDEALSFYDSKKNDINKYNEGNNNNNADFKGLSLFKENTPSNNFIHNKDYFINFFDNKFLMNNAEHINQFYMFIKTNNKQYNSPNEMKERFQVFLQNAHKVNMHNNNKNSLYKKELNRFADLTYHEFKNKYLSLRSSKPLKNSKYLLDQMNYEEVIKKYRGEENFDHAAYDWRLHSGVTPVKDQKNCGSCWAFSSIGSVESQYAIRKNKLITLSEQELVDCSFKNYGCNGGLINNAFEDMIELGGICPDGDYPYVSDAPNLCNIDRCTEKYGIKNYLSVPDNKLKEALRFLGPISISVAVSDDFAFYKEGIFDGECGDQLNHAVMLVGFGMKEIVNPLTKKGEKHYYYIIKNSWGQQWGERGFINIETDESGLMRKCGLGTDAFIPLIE
pIC50: −log10 of the molar value.

CN1CCN(C(=O)C[C@H](NC(=O)c2ccc(-c3ccccc3)cc2)C(=O)NC2(C#N)CC2)CC1
< 5.30
N#CC1(NC(=O)[C@H](CCCCCN)NC(=O)c2ccc(-c3ccccc3)cc2)CC1
< 5.30

Next item in the queue.
Input: # pIC50 lookup, item N#CC1(NC(=O)[C@H](CCCCN)NC(=O)c2ccc(-c3ccccc3)cc2)CC1
Output: < 5.30

====

What IC50 was measured for each of the following?
target: Cathepsin B (Homo sapiens)

Below: 2 compounds and their reported IC50.
N#CC1(NC(=O)[C@H](Cc2ccncc2)NC(=O)c2ccc(-c3ccccc3)cc2)CC1
> 5 µM
CN1CCN(C(=O)C[C@H](NC(=O)c2ccc(-c3ccccc3)cc2)C(=O)NC2(C#N)CC2)CC1
> 5 µM

Hi there! I need IC50 for each item below, if you can.
1. N#CC1(NC(=O)C(Cc2ccc(Cl)nc2)NC(=O)c2ccc(-c3ccccc3)cc2)CC1 (stereo not given)
2. N#CC1(NC(=O)[C@H](Cc2ccccn2)NC(=O)c2ccc(-c3ccccc3)cc2)CC1
3. N#CC1(NC(=O)[C@@H](Cc2cccnc2)NC(=O)c2ccc(-c3ccccc3)cc2)CC1

Output:
["> 5 µM", "> 5 µM", "> 50 µM"]
